- System: H292 cells
- testName: MTT cytotoxicity assay, H292 cells
- Assay type: cell-based, human
- conditionParameters: Homo sapiens, NCI-H292; H292 cells; Table S2; read-out: pIC50 (converted)
endpointLabel: IC50

>>> print(df.to_string())
                                   compound  valueobserved
0  COc1cc(OC)c(Cl)c(-c2cc(=O)c3ccc4occc4c3o2)c1Cl [Compound 1]         490 µM

Documented IC50 of COc1c2ccoc2cc2oc(-c3ccc4c(c3)OCO4)cc(=O)c12 [Compound 22] : > 1000 µM

Form: compound = O=c1c(-c2ccc3c(c2)OCO3)coc2cc(O)ccc12 [Compound 29] ; IC50 = 1000 µM

# IC50 of COc1c2ccoc2cc2oc(-c3ccccc3)cc(=O)c12 [Compound 20] = > 1000 µM

Reported IC50 ( COc1ccc(O)cc1-c1oc2c(ccc3occc32)c(=O)c1OC [Compound 18] ) = > 1000 µM

Value of IC50 reported for the compound COc1ccc(-c2coc3c(O)c(O)ccc3c2=O)cc1O [Compound 30] is 501 µM

Entry COc1ccc(-c2coc3c(OC)c(O)ccc3c2=O)cc1 [Compound 32] ; IC50 = 776 µM

What the record says about COc1ccc(-c2coc3cc(O)ccc3c2=O)cc1 [Compound 27] : IC50 is > 1000 µM

Record CC1(C)C=Cc2c(ccc(C(=O)/C=C/c3ccccc3)c2O)O1 [Compound 34, lonchocarpin] . Reported IC50: 10 µM

The compound listed as COc1cc(O)cc(-c2oc3c(ccc4occc43)c(=O)c2OC)c1 [Compound 19] shows IC50 equal to > 1000 µM

Lab book: IC50 of CC1(C)C=Cc2c(ccc3c2O[C@H](c2ccccc2)CC3=O)O1 [Compound 36] noted as 50 µM

Reported IC50 ( COc1cc(O)cc(-c2coc3cc(O)ccc3c2=O)c1 [Compound 31] ) = > 1000 µM

Lookup result for COc1cc2c(=O)cc(-c3ccccc3)oc2c2ccoc12 [Compound 9] ; measured IC50: 975 µM

Noted for CC1(C)C=Cc2c(ccc3c2O[C@H](c2ccc4c(c2)OCO4)CC3=O)O1 [Compound 37] : its IC50 reads 61.5 µM

Lab book: IC50 of COc1ccc2c(=O)c(OC)c(-c3ccc(OC)c(OC)c3)oc2c1 [Compound 25] noted as 1000 µM

Note to self: IC50 recorded for COc1c(-c2ccccc2)oc2c(cc(O)c3occc32)c1=O [Compound 11, demethylate kanjone] was > 1000 µM

get_value(item= COc1ccc(-c2coc3cc(CC=C(C)C)ccc3c2=O)cc1 [Compound 26] , readout=IC50) returns 294 µM

What the record says about COc1c(-c2ccc3c(c2)OCO3)oc2c3c(ccc2c1=O)OC(C)(C)C=C3 [Compound 12, pongapinnol-C] : IC50 is 100 µM

Note to self: IC50 recorded for O=c1cc(-c2ccc(O)cc2)oc2c1ccc1occc12 [Compound 4] was 705 µM

---

The reader will find reported IC50 values listed item by item below.
- System: H292 cells
- testName: MTT cytotoxicity assay, H292 cells
- Format: cell-based, human
- conditionParameters: Homo sapiens, NCI-H292; H292 cells; Table S2; read-out: pIC50 (converted)
Numeric answer only, unit µM assumed.

Consider the worked cases shown below.
>>> df
                        substancesmiles  valueobserved
0  COc1cccc(-c2cc(=O)c3ccc4occc4c3o2)c1            615
1   O=c1cc(-c2ccccc2)oc2c1cc(O)c1occc12            750

Next molecule, IC50 to be filled in.
Record CC1(C)C=Cc2c(ccc(C(=O)/C=C/c3ccc4c(c3)OCO4)c2O)O1 , field IC50: 61.5

---

- Tested on: H292 cells
- testName: MTT cytotoxicity assay, H292 cells
- Assay type: cell-based, human
- conditionParameters: Homo sapiens, NCI-H292; H292 cells; Table S2; read-out: pIC50 (converted)
Rule: IC50 below 400 µM gives yes. Equal to or above 400 µM gives no.

Worked set:
                            substancesmiles      target  class
0   O=c1cc(-c2ccc3c(c2)OCO3)oc2c1ccc1occc12  H292 cells     no
1       O=c1cc(-c2ccccc2)oc2c1c(O)cc1occc12  H292 cells     no
2      COc1ccc(-c2coc3c(O)c(OC)ccc3c2=O)cc1  H292 cells    yes
3       O=c1cc(-c2cccc(O)c2)oc2c1ccc1occc12  H292 cells     no
4  COc1cc(OC)cc(-c2cc(=O)c3ccc4occc4c3o2)c1  H292 cells    yes
5      COc1c(-c2ccccc2)oc2c(ccc3occc32)c1=O  H292 cells     no
6  COc1ccc(OC)c(-c2cc(=O)c3ccc4occc4c3o2)c1  H292 cells    yes

Next compound, please.
hey, is IC50 for O=c1c(-c2ccc(O)cc2)coc2cc(O)cc(O)c12 lower than 400 µM or not?
no

Data provenance is paper PMC5587747.
